These measurements were taken from the kinase profiling compilation of Christmann-Franck et al. (2016).

Below is a list of entries, each paired with its recorded kinase still bound, per cent of control value.
# Assay System: ABL2 (human) (UniProt P42684)
# Sequence (P42684 whole entry, looked up): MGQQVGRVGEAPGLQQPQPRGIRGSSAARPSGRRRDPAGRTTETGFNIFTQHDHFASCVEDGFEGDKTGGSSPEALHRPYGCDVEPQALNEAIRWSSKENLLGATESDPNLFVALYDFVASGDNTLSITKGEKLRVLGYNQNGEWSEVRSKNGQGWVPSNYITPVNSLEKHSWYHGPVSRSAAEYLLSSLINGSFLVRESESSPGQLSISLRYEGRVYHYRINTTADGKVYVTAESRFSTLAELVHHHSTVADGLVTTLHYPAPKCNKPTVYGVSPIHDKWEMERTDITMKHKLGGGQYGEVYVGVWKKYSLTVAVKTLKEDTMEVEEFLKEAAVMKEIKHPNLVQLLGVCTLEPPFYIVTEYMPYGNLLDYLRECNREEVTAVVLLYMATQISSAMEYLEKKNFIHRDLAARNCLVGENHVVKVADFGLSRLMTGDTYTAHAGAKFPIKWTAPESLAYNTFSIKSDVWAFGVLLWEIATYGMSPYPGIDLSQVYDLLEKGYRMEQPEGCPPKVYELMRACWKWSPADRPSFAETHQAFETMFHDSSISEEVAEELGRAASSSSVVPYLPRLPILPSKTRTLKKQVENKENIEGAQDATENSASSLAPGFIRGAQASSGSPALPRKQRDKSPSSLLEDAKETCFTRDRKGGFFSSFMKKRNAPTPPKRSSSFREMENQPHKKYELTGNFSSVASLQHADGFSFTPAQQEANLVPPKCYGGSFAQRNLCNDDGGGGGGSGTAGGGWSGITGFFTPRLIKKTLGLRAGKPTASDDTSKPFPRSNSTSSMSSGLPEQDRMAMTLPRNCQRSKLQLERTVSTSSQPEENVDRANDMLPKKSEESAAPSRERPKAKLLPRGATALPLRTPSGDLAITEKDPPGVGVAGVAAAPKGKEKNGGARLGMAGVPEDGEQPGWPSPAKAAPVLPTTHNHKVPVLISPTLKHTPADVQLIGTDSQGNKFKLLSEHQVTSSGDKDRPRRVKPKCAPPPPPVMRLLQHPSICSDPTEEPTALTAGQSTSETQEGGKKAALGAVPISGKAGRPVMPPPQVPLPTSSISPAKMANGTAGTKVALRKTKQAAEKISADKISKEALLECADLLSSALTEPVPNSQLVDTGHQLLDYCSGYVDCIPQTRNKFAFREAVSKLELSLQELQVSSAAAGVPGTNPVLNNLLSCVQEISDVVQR
# Assay Method Text: KINOMEscan competition binding
# Stated Conditions: compound 10.0 µM

- Molecule: "OCCCNc1cc(-c2ccnc(Nc3cccc(Cl)c3)n2)ccn1"
  kinase still bound, per cent of control: "100%"
- Molecule: "CCN1CCN(Cc2ccc(Nc3ncc4c(n3)N(C)c3ccccc3C(=O)N4C)cc2C(F)(F)F)CC1"
  kinase still bound, per cent of control: "3%"
- Molecule: "CN(C)C/C=C/C(=O)Nc1cccc(Nc2ncc3c(n2)N(C)c2ccccc2C(=O)N3C)c1"
  kinase still bound, per cent of control: "1.4%"
- Molecule: "Cc1ccc(NC(=O)c2cccc(C(C)(C)C#N)c2)cc1Nc1ccc2ncn(C)c(=O)c2c1"
  kinase still bound, per cent of control: "12%"
- Molecule: "Cc1ccc2nc(NCCN)c3ncc(C)n3c2c1"
  kinase still bound, per cent of control: "100%"
- Molecule: "COc1cc(N2CCN(C)CC2)ccc1Nc1nc(N)c(C(=O)c2c(Cl)cccc2Cl)s1"
  kinase still bound, per cent of control: "82%"
- Molecule: "O=C1Nc2ccc(I)cc2/C1=C/c1cc(Br)c(O)c(Br)c1"
  kinase still bound, per cent of control: "66%"
- Molecule: "C=CC(=O)Nc1cccc(Oc2nc(Nc3ccc(N4CCN(C)CC4)cc3OC)ncc2Cl)c1"
  kinase still bound, per cent of control: "100%"
- Molecule: "CCOc1cc2ncc(C#N)c(Nc3ccc(OCc4ccccn4)c(Cl)c3)c2cc1NC(=O)/C=C/CN(C)C"
  kinase still bound, per cent of control: "92%"
- Molecule: "COc1cc(C(=O)NC2CCN(C)CC2)ccc1Nc1ncc2c(n1)N(C1CCCC1)CCC(=O)N2C(C)C"
  kinase still bound, per cent of control: "100%"
- Molecule: "Nc1ccc(-c2ccc3ncc4ccc(=O)n(-c5cccc(C(F)(F)F)c5)c4c3c2)cn1"
  kinase still bound, per cent of control: "100%"
- Molecule: "O=C(NC1CC1)c1cccc(-c2ccc3c(NC(=O)C4CC4)n[nH]c3c2)c1"
  kinase still bound, per cent of control: "100%"
- Molecule: "C=CC(=O)Nc1cc(NC(=O)c2ccc(C)c(NC(=O)c3ccno3)c2)cc(C(F)(F)F)c1"
  kinase still bound, per cent of control: "32%"
- Molecule: "N#Cc1c(NC(=O)c2cccc3ccccc23)sc2c1CCCC2"
  kinase still bound, per cent of control: "86%"
- Molecule: "Cn1c(=O)n(-c2ccc(C(C)(C)C#N)cc2)c2c3cc(-c4cnc5ccccc5c4)ccc3ncc21"
  kinase still bound, per cent of control: "100%"
- Molecule: "C[C@@H](Oc1cc(-n2cnc3ccc(CN4CCN(C)CC4)cc32)sc1C(N)=O)c1ccccc1C(F)(F)F"
  kinase still bound, per cent of control: "90%"
- Molecule: "CCC(=O)N1CCN(c2ccc(-n3c(=O)ccc4cnc5ccc(-c6cnc7ccccc7c6)cc5c43)cc2C(F)(F)F)CC1"
  kinase still bound, per cent of control: "99%"
- Molecule: "O=C(O)c1ccc(Nc2ncc3c(n2)-c2ccc(Cl)cc2C(c2c(F)cccc2F)=NC3)cc1"
  kinase still bound, per cent of control: "30%"
- Molecule: "C=CC(=O)Nc1cccc(Nc2nc(N[C@H]3CC[C@H](N(C)C)CC3)nc3c2ncn3C(C)C)c1"
  kinase still bound, per cent of control: "94%"
- Molecule: "O=C(NOC[C@H](O)CO)c1ccc(F)c(F)c1Nc1ccc(I)cc1F"
  kinase still bound, per cent of control: "90%"
- Molecule: "CC[C@@H]1C(=O)N(C)c2cnc(Nc3ccc(C(=O)NC4CCN(C)CC4)cc3OC)nc2N1C1CCCC1"
  kinase still bound, per cent of control: "100%"
- Molecule: "COc1cc(C(=O)NC2CCN(C)CC2)ccc1Nc1ncc2c(n1)N(C1CCCC1)C(C)CC(=O)N2C (stereo not given)"
  kinase still bound, per cent of control: "100%"
- Molecule: "Cc1cc([C@@H](C)Nc2ccccc2C(=O)O)c2nc(N3CCOCC3)cc(=O)n2c1"
  kinase still bound, per cent of control: "95%"
- Molecule: "CCCS(=O)(=O)Nc1ccc(F)c(C(=O)c2c[nH]c3ncc(-c4ccc(Cl)cc4)cc23)c1F"
  kinase still bound, per cent of control: "32%"
- Molecule: "Cc1ccc(C(=O)Nc2cccc(C(F)(F)F)c2)cc1Nc1cncc(C(N)=O)c1"
  kinase still bound, per cent of control: "21%"
